Every entry's value here was drawn from patent US20230057987A1.

TARGET OR SYSTEM: T1, similar peptide SP-05-0002, source protein not stated peptide on HLA-A*02:01 (human)
T1 peptide: KIFSGLLKV
ASSAY METHOD TEXT: killing

BINDER	binding result
TCR-1 (TCR, V domains shown) Valpha: QTVTQSQPEMSVQEAETVTLSCTYDTSENNYYLFWYKQPPSRQMILVIRQEAYKQQNATENRFSVNFQKAAKSFSLKISDSQLGDTAMYFCAPLGLVAGSARQLTFGSGTQLTVLP Vbeta: GVSQDPRHKITKRGQNVTFRCDPISEHNRLYWYRQTLGQGPEFLTYFQNEAQLEKSRLLSDRFSAERPKGSFSTLEIQRTEQGDSAMYLCASSTDITSYEQYFGPGTRLTVT	no recognition
TCR-7 (TCR, V domains shown) Valpha: QTVTQSQPEMSVQEAETVTLSCTYDTSESDYYLFWYKQPPSRQMILVIRQEAYKQQNATENRFSVNFQKAAKSFSLKISDSQLGDAAMYFCTFRYGGATNKLIFGTGTLLAVQP Vbeta: GVIQSPRHLIKEKRETATLKCYPIPRHDTVYWYQQGPGQDPQFLISFYEKMQSDKGSIPDRFSAQQFSDYHSELNMSSLELGDSALYFCASRGGWAETPDTQYFGPGTRLTVL	no recognition
TCR-2 (TCR, V domains shown) Valpha: QKITQTQPGMFVQEKEAVTLDCTYDTSDQSYGLFWYKQPSSGEMIFLIYQGSYDEQNATEGRYSLNFQKARKSANLVISASQLGDSAMYFCAMREGSDAGGTSYGKLTFGQGTILTVHP Vbeta: GVIQSPRHLIKEKRETATLKCYPIPRHDTVYWYQQGPGQDPQFLISFYEKMQSDKGSIPDRFSAQQFSDYHSELNMSSLELGDSALYFCASSPSTGRLNTEAFFGQGTRLTVV	no recognition
TCR-13 (TCR, V domains shown) Valpha: QKITQTQPGMFVQEKEAVTLDCTYDTSDQSYGLFWYKQPSSGEMIFLIYQGSYDEQNATEGRYSLNFQKARKSANLVISASQLGDSAMYFCAMSDPIMDTGRRALTFGSGTRLQVQP Vbeta: GITQSPKYLFRKEGQNVTLSCEQNLNHDAMYWYRQDPGQGLRLIYYSQIVNDFQKGDIAEGYSVSREKKESFPLTVTSAQKNPTAFYLCASKSRGPNLADTQYFGPGTRLTVL	no recognition
TCR-15 (TCR, V domains shown) Valpha: KQEVTQIPAALSVPEGENLVLNCSFTDSAIYNLQWFRQDPGKGLTSLLLIQSSQREQTSGRLNASLDKSSGRSTLYIAASQPGDSATYLCAVLLTGKLIFGQGTTLQVKP Vbeta: GVTQTPRYLIKTRGQQVTLSCSPISGHRSVSWYQQTPGQGLQFLFEYFSETQRNKGNFPGRFSGRQFSNSRSEMNVSTLELGDSALYLCASSGGPGPSGEQYFGPGTRLTVT	no recognition
TCR-14 (TCR, V domains shown) Valpha: QKITQTQPGMFVQEKEAVTLDCTYDTSDQSYGLFWYKQPSSGEMIFLIYQGSYDEQNATEGRYSLNFQKARKSANLVISASQLGDSAMYFCAINGLPGSARQLTFGSGTQLTVLP Vbeta: GVAQSPRYKIIEKRQSVAFWCNPISGHATLYWYQQILGQGPKLLIQFQNNGVVDDSQLPKDRFSAERLKGVDSTLKIQPAKLEDSAVYLCASSRFVATGTSPLHFGNGTRLTVT	no recognition
TCR-3 (TCR, V domains shown) Valpha: QKITQTQPGMFVQEKEAVTLDCTYDTSDQSYGLFWYKQPSSGEMIFLIYQGSYDEQNATEGRYSLNFQKARKSANLVISASQLGDSAMYFCGYSNYQLIWGAGTKLIIKP Vbeta: QVTQNPRYLITVTGKKLTVTCSQNMNHEYMSWYRQDPGLGLRQIYYSMNVEVTDKGDVPEGYKVSRKEKRNFPLILESPSPNQTSLYFCASREGTGGYQPQHFGDGTRLSIL	no recognition
TCR-8 (TCR, V domains shown) Valpha: QKVTQAQTEISVVEKEDVTLDCVYETRDTTYYLFWYKQPPSGELVFLIRRNSFDEQNEISGRYSWNFQKSTSSFNFTITASQVVDSAVYFCALSGRGSGTYKYIFGTGTRLKVLA Vbeta: GVIQSPRHLIKEKRETATLKCYPIPRHDTVYWYQQGPGQDPQFLISFYEKMQSDKGSIPDRFSAQQFSDYHSELNMSSLELGDSALYFCASSAGTSYNEQFFGPGTRLTVL	no recognition
TCR-9 (TCR, V domains shown) Valpha: EDVEQSLFLSVREGDSSVINCTYTDSSSTYLYWYKQEPGAGLQLLTYIFSNMDMKQDQRLTVLLNKKDKHLSLRIADTQTGDSAIYFCAEKETAGNKLTFGGGTRVLVKP Vbeta: EPEVTQTPSHQVTQMGQEVILRCVPISNHLYFYWYRQILGQKVEFLVSFYNNEISEKSEIFDDQFSVERPDGSNFTLKIRSTKLEDSAMYFCASTVQSPRTNEQFFGPGTRLTVL	no recognition
TCR-4 (TCR, V domains shown) Valpha: QSVAQPEDQVNVAEGNPLTVKCTYSVSGNPYLFWYVQYPNRGLQFLLKYITGDNLVKGSYGFEAEFNKSQTSFHLKKPSALVSDSALYFCAAPRDDKIIFGKGTRLHILP Vbeta: GVTQTPKFRVLKTGQSMTLLCAQDMNHEYMYWYRQDPGMGLRLIHYSVGEGTTAKGEVPDGYNVSRLKKQNFLLGLESAAPSQTSVYFCASSYLRTGGNEQFFGPGTRLTVL	no recognition
TCR-6 (TCR, V domains shown) Valpha: QKEVEQDPGPLSVPEGAIVSLNCTYSNSAFQYFMWYRQYSRKGPELLMYTYSSGNKEDGRFTAQVDKSSKYISLFIRDSQPSDSATYLCAMSGNSGARDYGNNRLAFGKGNQVVVIP Vbeta: EVTQTPKHLVMGMTNKKSLKCEQHMGHRAMYWYKQKAKKPPELMFVYSYEKLSINESVPSRFSPECPNSSLLNLHLHALQPEDSALYLCASATWEEAGPYNEQFFGPGTRLTVL	no recognition
